study.system: Genome polyprotein (Dengue virus type 2 (strain 16681-PDK53)) (UniProt P29991)
experiment.description: flavivirus cap methylation enzyme inhibition – biochemical, confirmation dose response, primary screen (AID 588689)
condition.info: Dengue-2 NS5 methyltransferase capping enzyme assay, at 25 µM, hits give high values
The whole screen tested about 340,000 compounds, of which about 1,000 (0.29%) were called active. Not all results are given here. Measured potencies and affinities stand elsewhere.
assay.endpoint: inhibition (%)
Number in %, nothing else.

These recorded examples may help you get a feel for the data.
[ask] Could you please provide reported inhibition for "CCn1c(CC(=O)Nc2ccccc2)nnc1SCc1nc2ccccc2c(=O)[nH]1" ? Thanks!
[reply] -0.79

[ask] Could you please provide reported inhibition for CC1(C)CC2CC(C)(CN2C(=O)COC(=O)c2cccc([N+](=O)[O-])c2)C1 (stereo unspecified) ? Thanks!
[reply] 6.17

[ask] Could you please provide reported inhibition for CCCC1=C([O-])C2N=CC=CC2=[N+](c2ccccn2)C1=O (stereo unspecified) ? Thanks!
[reply] -1.93

[ask] Could you please provide reported inhibition for "CCC(=O)N1CCc2cc(Br)cc(S(=O)(=O)NCc3ccco3)c21" ? Thanks!
[reply] 0

[ask] Could you please provide reported inhibition for "O=C(CCN1CCN(CCO)CC1)Nc1cccc(Br)c1" ? Thanks!
[reply] 0

Kindly consider the entry below.
[ask] Could you please provide reported inhibition for "CCCCc1nnc(SCC(=O)Nc2nccs2)n1CC" ? Thanks!
[reply] -0.32
